Below, each of the molecules is paired with its reported melting point value.

Here's what some known entries look like.
| molecule | melting point |
| --- | --- |
| CSc1ccc(-c2coc3ccc(-c4nnc(C)o4)cc23)cc1F | 179 to 180 °C |
| COc1ccc2c(c1)C13CCCOC1(C)C(C2)N(C#N)CC3 (stereo not given) | 157 to 158 °C |
| OP(O)C(NC(c1ccccc1)c1ccccc1)c1ccc2ccccc2c1 (stereo not given) | 205 to 207 °C |
| CCN1C(=O)C(C)(C)C(=O)N(C)c2cc(CN(CCn3ccc4ccsc4c3=O)Cc3cnccc3C)ccc21 | 138 to 142 °C |
| O=C1CCN(Cc2ccc(C(F)(F)F)cc2C(F)(F)F)CC1C(c1ccc(F)cc1)c1ccc(F)cc1 (stereo not given) | 104 to 105 °C |
| Cc1oc(-c2ccccc2)nc1COc1ccc(/C=C/C=O)cn1 | 147 to 148 °C |
| COc1ccc(CNc2nc(C)c(-c3ccncc3)s2)cc1OC | 134 to 135 °C |
| Cc1cc(-c2nn(-c3cccc(C(F)(F)F)c3)ccc2=O)n(-c2ccccc2)n1 | 167 to 168 °C |

Q: What value of melting point has been reported for the following molecule? Brc1ccc2sc(-c3ccccc3)c(N3CCN(Cc4ccccc4)CC3)c2c1
Ans: 156 to 157 °C

Q: Same question, COc1ccc(Cn2[nH]c(N)cc2=O)cc1 this time
Ans: 161 °C

Q: Same question, Brc1ccc(OCc2ccc3ccccc3n2)cc1 this time
Ans: 103 to 105 °C

Q: Same question, CN1CCCC1CCNc1ncc2c(c1C#N)-c1ccccc1C(c1ccc(Cl)c(Cl)c1)C2 (stereo not given) this time
Ans: 131 to 134 °C

* * *

Below, each of the molecules is paired with its reported melting point value.

Here's what some known entries look like.
| molecule | melting point |
| --- | --- |
| Cc1cn(-c2cccc(OCCOS(N)(=O)=O)c2)cn1 | 169 to 170 °C |
| c1cc(-c2cn([C@H]3CN4CCC3CC4)nn2)ccn1 | 150 °C |
| CC(=O)NCCn1ccc2c1-c1ccccc1CC2 | 95 to 96 °C |
| C[C@H](N)C(=O)Nn1cccc1 | 63 to 66 °C |
| CN1CCN(c2cccc(CS(=O)(=O)c3ccccc3)c2[N+](=O)[O-])CC1 | 180 to 182 °C |

Q: What value of melting point has been reported for the following molecule? CN(C)C(=O)c1ccccc1OCC(=O)NC(C)(C)c1ccc(Cl)cc1
Ans: 127 to 129 °C

Q: Same question, CCCc1cc(-c2cc(OC)c3c(C)c(C)c(=O)oc3c2)on1 this time
Ans: 94 °C

Q: Same question, CC(C)C1CC(=O)C(=C2CCCN2)C(=O)C1 (stereo unspecified) this time
Ans: 143 to 145 °C

Q: Same question, CN(C)CCCOc1ccc(C[C@H](NC(=O)[C@@H]2CCCN2S(=O)(=O)c2cn(C)cn2)C(=O)O)cc1 this time
Ans: > 200 °C

Q: Same question, COC(=O)Cc1c(-c2ccccc2)nn(-c2ccccc2)c1-c1ccccc1 this time
Ans: 80.5 to 81.5 °C

Q: Same question, Cc1cc(O)c(C)c(O)c1C#N this time
Ans: 162 to 163 °C

* * *

reported-metric: melting point

Here's what some known entries look like.
| compound | reported-metric | value-observed |
| --- | --- | --- |
| CCOC(=O)c1cc(C)n(-c2cccc(C(C)=O)c2)c1-c1ccccc1 | melting point | 100 to 102 °C |
| CC(=O)OCC1=C(C(=O)OC(c2ccccc2)c2ccccc2)N2C(=O)C(NC(=O)Cc3csc(-c4c(O)cccc4O)n3)C2SC1 (centres undefined) | melting point | 144 to 146 °C |
| O=C(CC(=O)C1CCCCC1)C1CCCCC1 | melting point | 50 to 52 °C |
| CC(=O)Nc1c(C(=O)c2cc(CO)ccn2)[nH]c2cc(Cl)ccc12 | melting point | 216 to 218 °C |
| CCc1nc(NC)nc2c1ncn2C1CC(F)C(CO)O1 (centres undefined) | melting point | 99 to 100 °C |
| N#Cc1ccc(N(Cc2ccc(O)c(Cl)c2)n2cnnc2)cc1-c1ccoc1 | melting point | 192 to 193 °C |
| Cc1ccc(C(=O)N2CCN(CCc3ccc(Cl)cc3)CC2)cc1 | melting point | 105 to 106 °C |
| Cc1cc(C)c2c(=O)[nH]c(-c3cc(C)c(OCCN4CCCC4)c(C)c3)nc2c1 | melting point | 181 to 182 °C |
| CC(NC(=O)Cc1cc(F)cc(F)c1)C(=O)NC1C(=O)NC(c2cccnc2)c2ccccc21 (centres undefined) | melting point | 100 to 120 °C |
| CNc1nc(-c2cccc(NC(=O)c3cccc(OC)c3)c2)c2cc(OC)c(OC)cc2n1 | melting point | 193 to 195 °C |

Q: What value of melting point has been reported for the following compound? Cc1cc(N)c(Cl)c(C)n1
Ans: 86 °C
